Reported apparent KD of MS2 coat protein values for a set of sequences
- Test system: MS2 coat protein
- test: apparent KD of MS2 coat protein; designed switch direction (-1 OFF switch, 1 ON switch): 1; higher = weaker reporter binding
- reported.conditions: Eterna round: R95; input ligand: FMN 200 uM
Quote the value and follow it with the unit of measurement.

Example entries and their recorded answers appear below.
{"monomer.sequence": "CAAGGACGGACACAGGAUAUCCUCACCUACACAUGAGGAUCACCCAUGUCAUAAAAGAUGGUGCAGGAGAAGGGUGCGGCGUCAA [Zarelaesdi] (puzzle: Same State 2)", "tested.system": "MS2 coat protein", "apparent KD of MS2 coat protein": "7.93 nM"}
{"monomer.sequence": "UGGAUCUAGGCUUGCCUGGGUCCAUGUUGACAUGAGGAUCACCCAUGUGUAUUUUUUUUGCUUUUUGUUUGUCAACU [JL A Humble Attempt mod 11] (puzzle: Sensor for hsa-mir-208a)", "tested.system": "MS2 coat protein", "apparent KD of MS2 coat protein": "25.2 nM"}
{"monomer.sequence": "AUCCUACAUGAGGAUCACCCAUGUGAAGCCUCAAUAGGAUAUGCGUGUGCCUUGGCGCAUGCAGAAGGAUUGAAGC [JL Aveso mod 3] (puzzle: Same State 1)", "tested.system": "MS2 coat protein", "apparent KD of MS2 coat protein": "91 nM"}

Switching to the query record.
Given AGUGAAGAAGCUGAGGAUAUCGUAAGGAGGACAUGAGGAUCACCCAUGUGUGUGGAAUUGGAGGACGAGAAGGCAGAGGAGUGGG [JR_SS2_Sub057] (puzzle: Same State 2) , state its recorded apparent KD of MS2 coat protein.
39.3 nM
